# ASSAY_DETAILS: activators of glucose-dependent insulin secretion, dose response, cell-based, INS-1E, Gaussia luciferase, luminescence, cherry-pick, set 2 (AID 977607);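 note: 0% = median of the plate neutral control wells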
# CONDITION: INS-1E GLuc insulin secretion reporter, 2-3 h, stronger effect = higher value; at 35 µM, 100% = signal doubled over neutral wells unless noted
In all, about 1,500 compounds went through this assay and about 460 (31%) were called active. Roughly 1% stayed inconclusive and do not appear here. Not all results are given here. Potency and affinity values are given separately.
MEASUREMENT_KIND: max activation

Example compounds with recorded max activation:
CCCCC(=O)N(C)c1c(CC)nc2c(OCc3ccc(C(F)(F)F)cc3)cccn12 :: -15.2% (inactive)
O=C(Nc1ccnn1C1CCN(C2CCC2)CC1)c1ccccc1Cl :: -5.42% (inactive)
O=C(Cc1ccsc1)NNC(=O)c1ccccc1Cl :: -13.6% (inactive)

-- ask Which max activation is reported for this compound? CC(=O)Nc1ccc(-c2ccnc3c2CC(C)(C(=O)Nc2cccc(OC(F)(F)F)c2)O3)cc1 (stereo not drawn)
-- reply -44.4% (inactive)

-- ask Any idea what max activation was measured for CCCc1nc2n[nH]c(N)c2c2c1COC(C)(C)C2 ?
-- reply 19.9% (inactive)
